Target: Serine/threonine-protein kinase Chk1 (Homo sapiens) (UniProt O14757);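 note: reported figure is the mean percent inhibition of CHEK1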
Sequence (whole entry): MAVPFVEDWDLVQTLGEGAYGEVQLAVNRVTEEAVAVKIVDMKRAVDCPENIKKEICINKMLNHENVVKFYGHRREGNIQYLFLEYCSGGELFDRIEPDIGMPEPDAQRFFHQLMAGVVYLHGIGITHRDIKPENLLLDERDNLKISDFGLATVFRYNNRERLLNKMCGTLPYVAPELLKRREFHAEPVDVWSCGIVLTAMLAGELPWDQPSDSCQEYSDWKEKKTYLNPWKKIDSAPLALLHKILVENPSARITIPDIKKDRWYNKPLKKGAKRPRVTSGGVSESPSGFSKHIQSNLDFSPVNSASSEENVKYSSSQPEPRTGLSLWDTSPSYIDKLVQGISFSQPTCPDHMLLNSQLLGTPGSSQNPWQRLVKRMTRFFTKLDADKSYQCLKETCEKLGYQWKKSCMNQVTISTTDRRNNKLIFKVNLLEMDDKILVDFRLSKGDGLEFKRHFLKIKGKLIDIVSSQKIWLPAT
Settings: at 0.1 µM
PROPERTY NAME: inhibition (%)
Give bare numbers, in %.

Below: 3 compounds and their reported inhibition.
COC(=O)Nc1nc2cc(Oc3cccc(NC(=O)Nc4cc(C(F)(F)F)ccc4F)c3)ccc2[nH]1
-2.61
c1cnn2ncc(-c3ccnc(Nc4ccc5c(c4)OCCO5)n3)c2c1
0.16
CS(=O)(=O)CCNCc1ccc(-c2ccc3ncnc(Nc4ccc(OCc5ccccc5)c(Cl)c4)c3c2)o1
-6.61

// for each compound below, give its inhibition
1. COc1ccc2cc(-c3c(-c4ccncc4)nc(-c4ccc([S+](C)[O-])cc4)n3C)ccc2c1 (stereo not given)
2. CC(C)=Cc1cccc2c1/C(=N/Nc1ccc(S(N)(=O)=O)cc1)C(=O)N2

Output:
1. 3.28
2. 6.35

I have 3 compounds here; please give me inhibition for each one.
1. COc1ccccc1Nc1ncc(-c2ccccc2)o1
2. Fc1cccc(COc2ccc(Nc3ncnc4cc(-c5ccc[nH]5)sc34)cc2Cl)c1
3. Cc1nn(C)c2cc(N(C)c3ccnc(Nc4cccc(S(N)(=O)=O)c4)n3)ccc12

Output:
-2.97
-0.13
4.46

Okay, here is my list. What is inhibition for each of these?
1. COc1ccc(-c2ccncc2)cc1C(N)=O
2. Fc1cccc(COc2ccc(Nc3ncnc4sc(-c5cccs5)cc34)cc2Cl)c1

Output:
8.46
-6.44

----------
Tested on: Tyrosine-protein kinase ABL1 (Homo sapiens), P00519 [T315I]
Conditions: at 1 µM
PROPERTY NAME: inhibition (%)
Numbers only, in %.

For orientation, consider the following solved cases.
CCn1c(-c2nonc2N)nc2c(C#CC(C)(C)O)nc(OC[C@@H](N)c3ccccc3)cc21
3.35
NC(=O)c1cccc(Nc2nccc(Nc3cccc4[nH]ncc34)n2)c1
25.4
COc1ccc(-c2ccncc2)cc1C(N)=O
2.08
CCn1c(-c2nonc2N)nc2cncc(C(=O)N3CCNCC3)c21
1.77
CS(=O)(=O)CCNCc1ccc(-c2ccc3ncnc(Nc4ccc(OCc5cccc(F)c5)c(C(F)(F)F)c4)c3c2)o1
4.21

For each of the items listed, what is its inhibition?
1. Nc1ncnc2occ(-c3ccc(NC(=O)Nc4cc(C(F)(F)F)cc(C(F)(F)F)c4)cc3)c12
2. COc1ccc(-c2coc3ncnc(N)c23)cc1
3. Cc1ccc(C(=O)NC2CCCCC2)cc1-c1ccc(C(=O)NCC2CC2)cc1
4. NC(=O)c1ccc(-c2nc(-c3ccccn3)c(-c3ccc4c(c3)OCO4)[nH]2)cc1
5. Cn1cc(C=C2C(=O)Nc3cccnc32)c2ccccc21

Output:
1. 83.3
2. 2.72
3. -0.78
4. 2.56
5. 43.9

----------
Target: Calcium/calmodulin-dependent protein kinase type II subunit alpha (Homo sapiens);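 note: reported value is a mean percent inhibition of CAMK2A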
Settings: at 1 µM
PROPERTY NAME: inhibition (%)
Answers are plain numbers, in %.

Please report inhibition for every entry that follows.
1. COc1cc2c(cc1Nc1nc(N3CCc4ccccc43)c3cc[nH]c3n1)N(C(=O)CN(C)C)CC2
2. [O-][S+]1CCN(Cc2ccc(-c3ccc4ncnc(Nc5ccc(OCc6ccccc6)c(F)c5)c4c3)o2)CC1

Output:
1. 4.08
2. 2.39

----------
Target: MAP/microtubule affinity-regulating kinase 4 (Homo sapiens) (UniProt Q96L34);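 note: reported value is a mean MARK4 inhibition at 1 µM, taken from the GSK PKIS screening set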
Sequence (Q96L34 whole entry): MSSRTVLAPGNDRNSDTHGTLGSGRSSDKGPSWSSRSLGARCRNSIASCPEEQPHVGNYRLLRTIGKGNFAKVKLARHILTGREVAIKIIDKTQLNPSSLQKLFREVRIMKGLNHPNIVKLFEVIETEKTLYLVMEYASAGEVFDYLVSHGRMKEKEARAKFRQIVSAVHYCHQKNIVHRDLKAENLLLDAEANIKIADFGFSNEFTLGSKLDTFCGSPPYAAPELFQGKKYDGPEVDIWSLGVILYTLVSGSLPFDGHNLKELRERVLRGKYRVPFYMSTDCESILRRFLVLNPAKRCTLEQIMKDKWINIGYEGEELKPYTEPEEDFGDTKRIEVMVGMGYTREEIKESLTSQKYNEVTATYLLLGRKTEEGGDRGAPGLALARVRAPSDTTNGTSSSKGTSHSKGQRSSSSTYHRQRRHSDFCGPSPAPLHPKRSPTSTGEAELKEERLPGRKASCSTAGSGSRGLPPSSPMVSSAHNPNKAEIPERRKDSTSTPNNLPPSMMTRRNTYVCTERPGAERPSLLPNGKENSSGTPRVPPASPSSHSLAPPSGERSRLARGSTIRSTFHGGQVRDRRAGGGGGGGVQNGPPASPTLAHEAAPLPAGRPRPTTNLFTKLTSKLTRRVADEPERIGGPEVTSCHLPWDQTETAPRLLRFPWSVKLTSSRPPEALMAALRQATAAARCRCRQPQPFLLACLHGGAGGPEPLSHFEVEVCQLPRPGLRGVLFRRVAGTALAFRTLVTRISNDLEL
Conditions: at 1 µM
PROPERTY NAME: inhibition (%)
Numbers only, in %.

CS(=O)(=O)CCNCc1ccc(-c2ccc3ncnc(Nc4ccc(OCc5cccc(F)c5)c(C(F)(F)F)c4)c3c2)o1
-0.39
COC(=O)Nc1nc2cc(Oc3ccc(NC(=O)Nc4cccc(C(=O)O)c4)cc3)ccc2[nH]1
1.97
COc1cc2ncn(-c3cc(OCc4ccccc4Cl)c(C(N)=O)s3)c2cc1OC
9.04

// for each molecule below, give its inhibition
1. NS(=O)(=O)c1cccc(-c2ccc3c(NC(=O)C4CC4)n[nH]c3c2)c1
2. CNC(=O)c1cncc(/C=C/c2c(Cl)cccc2Cl)c1
3. CCn1c(-c2nonc2N)nc2cncc(C(=O)N3CC[C@H](N)C3)c21
4. COc1cc(C)c(NC(=O)CN(C)C)cc1Nc1nc(Nc2cccc(F)c2C(N)=O)c2cc[nH]c2n1
5. CCn1c(-c2nonc2N)nc2c(C#CC(C)(C)O)nc(OC[C@@H](N)c3ccccc3)cc21
6. NC(=O)c1ccc(-c2nc(-c3ccccn3)c(-c3ccc4c(c3)OCO4)[nH]2)cc1
7. CN1CCC(C(=O)Nc2n[nH]c3nnc(-c4ccccc4)cc23)CC1
8. COc1cc2ncn(-c3cc(OCc4ccccc4C(F)(F)F)c(C(N)=O)s3)c2cc1OC

Output:
1. 6.55
2. 3.08
3. 4.51
4. 0.75
5. 16.9
6. 0.93
7. 3.02
8. 18.4

----------
Target: Phosphatidylinositol 4,5-bisphosphate 3-kinase catalytic subunit delta isoform (Homo sapiens);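 note: reported values are mean percent inhibition of PI3K-delta activity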
Conditions: at 1 µM
Label 1 (yes) when inhibition is at or above 4%; otherwise label 0 (no).

Input: Answer whether inhibition of `COc1cc2c(cc1Nc1nc(N3CCc4ccccc43)c3cc[nH]c3n1)N(C(=O)CN(C)C)CC2` is greater than or equal to 4%.
Output: 0 (no)

Input: Item `c1cnn2ncc(-c3ccnc(Nc4ccc5c(c4)OCCO5)n3)c2c1` with inhibition of 4% or above?
Output: 1 (yes)

Input: Hello, I need to know if `Nc1ncnc2occ(-c3ccc(NC(=O)Nc4cccc(C(F)(F)F)c4)cc3)c12` has measured inhibition not below 4%. Thanks!
Output: 1 (yes)

----------
Biological target: Protein kinase C theta type (Homo sapiens) (UniProt Q04759);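 note: reported figure is the mean percent inhibition of PKC-theta, from the GSK PKIS screen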
Sequence (Q04759 whole entry, looked up): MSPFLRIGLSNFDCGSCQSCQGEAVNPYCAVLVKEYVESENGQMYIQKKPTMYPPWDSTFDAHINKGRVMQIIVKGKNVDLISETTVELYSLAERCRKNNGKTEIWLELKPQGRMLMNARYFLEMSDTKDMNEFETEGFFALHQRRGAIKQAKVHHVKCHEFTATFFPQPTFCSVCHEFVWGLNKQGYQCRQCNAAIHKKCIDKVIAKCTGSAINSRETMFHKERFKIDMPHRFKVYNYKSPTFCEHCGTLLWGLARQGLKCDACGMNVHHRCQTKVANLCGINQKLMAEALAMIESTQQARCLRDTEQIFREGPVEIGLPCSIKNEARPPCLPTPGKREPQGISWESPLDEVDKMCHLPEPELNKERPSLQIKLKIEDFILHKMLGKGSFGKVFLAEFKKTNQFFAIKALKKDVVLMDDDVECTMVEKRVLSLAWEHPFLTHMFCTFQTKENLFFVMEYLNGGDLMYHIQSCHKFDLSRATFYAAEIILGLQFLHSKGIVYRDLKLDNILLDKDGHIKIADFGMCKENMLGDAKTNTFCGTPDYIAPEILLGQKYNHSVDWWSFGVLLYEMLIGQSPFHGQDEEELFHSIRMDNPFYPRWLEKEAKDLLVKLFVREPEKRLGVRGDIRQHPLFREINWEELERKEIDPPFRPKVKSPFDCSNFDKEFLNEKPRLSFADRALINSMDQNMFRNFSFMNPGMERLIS
Settings: at 0.1 µM
PROPERTY NAME: inhibition (%)
One number for each entry, in %.

Use these answered entries as a reference point.
CCn1c(-c2nonc2N)nc2c(C#CC(C)(C)O)nc(OC[C@@H](N)c3ccccc3)cc21
11.9
CS(=O)(=O)CCN(CC#N)Cc1ccc(-c2ccc3ncnc(Nc4ccc(OCc5cccc(F)c5)c(Cl)c4)c3c2)o1
0.98
COc1ccccc1Nc1ncc(-c2ccccc2)o1
3.4
Nc1ncnc2occ(-c3ccc(NC(=O)Nc4cccc(C(F)(F)F)c4)cc3)c12
2.55
CS(=O)(=O)CCNCc1ccc(-c2ccc3ncnc(Nc4ccc(OCc5ccccc5)c(Cl)c4)c3c2)o1
0.62

Give inhibition for all molecules that follow.
1. CS(=O)(=O)CCNCc1nc(-c2ccc3ncnc(Nc4ccc(F)c(Cl)c4)c3c2)cs1
2. [O-][S+]1CCN(Cc2ccc(-c3ccc4ncnc(Nc5ccc(OCc6ccccc6)c(F)c5)c4c3)o2)CC1

Output:
1. 0.64
2. 0.77

----------
Target: Angiopoietin-1 receptor (Homo sapiens) (UniProt Q02763)
Sequence (Q02763 whole entry): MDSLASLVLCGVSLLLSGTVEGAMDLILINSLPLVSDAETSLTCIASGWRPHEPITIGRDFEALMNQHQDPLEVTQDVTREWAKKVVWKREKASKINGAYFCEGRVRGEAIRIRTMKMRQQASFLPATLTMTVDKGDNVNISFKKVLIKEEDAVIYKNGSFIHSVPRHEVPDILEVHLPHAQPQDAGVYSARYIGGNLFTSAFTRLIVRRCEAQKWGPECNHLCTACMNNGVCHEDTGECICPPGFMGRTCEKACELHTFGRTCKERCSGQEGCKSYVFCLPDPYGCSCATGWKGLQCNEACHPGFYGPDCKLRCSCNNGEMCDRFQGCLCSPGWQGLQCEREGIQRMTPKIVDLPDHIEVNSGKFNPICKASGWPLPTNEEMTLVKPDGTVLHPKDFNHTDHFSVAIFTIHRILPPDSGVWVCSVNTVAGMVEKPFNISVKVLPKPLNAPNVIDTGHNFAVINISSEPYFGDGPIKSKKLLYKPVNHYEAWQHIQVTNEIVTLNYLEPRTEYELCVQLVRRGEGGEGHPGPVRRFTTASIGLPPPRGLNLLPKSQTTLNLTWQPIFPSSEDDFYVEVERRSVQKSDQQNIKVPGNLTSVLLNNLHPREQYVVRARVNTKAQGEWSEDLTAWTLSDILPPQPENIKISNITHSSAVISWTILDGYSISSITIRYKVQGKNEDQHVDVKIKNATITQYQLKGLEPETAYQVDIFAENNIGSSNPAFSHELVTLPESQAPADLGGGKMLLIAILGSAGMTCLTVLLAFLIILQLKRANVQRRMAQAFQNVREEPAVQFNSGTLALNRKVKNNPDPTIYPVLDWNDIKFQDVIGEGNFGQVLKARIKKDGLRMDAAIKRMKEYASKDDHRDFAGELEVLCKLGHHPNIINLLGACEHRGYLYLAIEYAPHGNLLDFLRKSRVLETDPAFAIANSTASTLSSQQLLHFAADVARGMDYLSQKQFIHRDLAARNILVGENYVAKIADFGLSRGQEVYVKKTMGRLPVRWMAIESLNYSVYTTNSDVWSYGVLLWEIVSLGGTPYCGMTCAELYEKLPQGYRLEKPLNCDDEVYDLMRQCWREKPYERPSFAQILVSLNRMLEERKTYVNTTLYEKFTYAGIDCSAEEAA
Details: at 0.1 µM
Description: GSK_PKIS: TIE2 mean inhibition at 0.1 uM [Nanosyn]
Answer each item with its documented inhibition.
Answers are plain numbers, in %.

The following molecules have reported results that may help.
Cc1nn(C)c2cc(N(C)c3ccnc(Nc4cccc(S(N)(=O)=O)c4)n3)ccc12
10.6
CN(C)c1cc2c(Nc3ccc4nc(Cc5ccccc5)[nH]c4c3)ncnc2cn1
3.86
CS(=O)(=O)CCNCc1ccc(-c2ccc3ncnc(Nc4ccc(OCc5cccc(F)c5)c(C(F)(F)F)c4)c3c2)o1
4.55

Please give inhibition, item by item, for the list that follows.
1. COc1cc2ncn(-c3cc(O[C@H](C)c4ccccc4Cl)c(C(N)=O)s3)c2cc1OC
2. CCn1c(-c2nonc2N)nc2cncc(C(=O)N3CC[C@H](N)C3)c21
3. CS(=O)(=O)CCNCc1nc(-c2ccc3ncnc(Nc4ccc(F)c(Cl)c4)c3c2)cs1
4. COc1cccc(-n2ncc3c(N/N=C/c4cccc(F)c4)ncnc32)c1
5. O=C(Nc1n[nH]c2nc(-c3ccco3)c(Br)cc12)C1CC1
6. CCc1cccc(NC(=O)Nc2ccc(Oc3ccc4nc(NC(=O)OC)[nH]c4c3)cc2)c1

Output:
12.7
11.3
7.71
1.49
7.26
46.2

----------
Target: Dual specificity protein kinase TTK (Homo sapiens) (UniProt P33981)
Sequence (whole entry): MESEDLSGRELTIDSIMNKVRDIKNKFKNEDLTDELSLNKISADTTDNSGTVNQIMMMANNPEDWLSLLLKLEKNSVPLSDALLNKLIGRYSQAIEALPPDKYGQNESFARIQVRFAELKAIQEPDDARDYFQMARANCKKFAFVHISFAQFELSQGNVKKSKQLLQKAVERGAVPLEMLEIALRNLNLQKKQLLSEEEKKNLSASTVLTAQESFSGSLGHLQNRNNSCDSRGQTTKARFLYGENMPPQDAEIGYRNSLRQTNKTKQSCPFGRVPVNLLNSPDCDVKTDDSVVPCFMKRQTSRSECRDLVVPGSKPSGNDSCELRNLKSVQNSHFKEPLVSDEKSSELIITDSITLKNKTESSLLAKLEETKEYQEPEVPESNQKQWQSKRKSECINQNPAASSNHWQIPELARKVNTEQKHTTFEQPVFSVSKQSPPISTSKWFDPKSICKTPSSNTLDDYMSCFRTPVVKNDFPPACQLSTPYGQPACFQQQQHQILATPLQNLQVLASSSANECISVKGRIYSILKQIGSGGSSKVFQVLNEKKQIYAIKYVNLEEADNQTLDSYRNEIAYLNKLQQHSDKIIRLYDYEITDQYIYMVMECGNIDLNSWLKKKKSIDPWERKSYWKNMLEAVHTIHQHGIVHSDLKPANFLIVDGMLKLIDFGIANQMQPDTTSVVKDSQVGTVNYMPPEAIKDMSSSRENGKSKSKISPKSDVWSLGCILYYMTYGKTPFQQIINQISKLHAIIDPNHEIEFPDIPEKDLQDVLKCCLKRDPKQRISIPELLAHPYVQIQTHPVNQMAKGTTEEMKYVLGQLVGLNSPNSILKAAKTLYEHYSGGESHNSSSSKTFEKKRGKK
Details: at 0.1 µM
Description: GSK_PKIS: TTK mean inhibition at 0.1 uM [Nanosyn]
I'd be grateful if you could share measured inhibition for these entries.
One number for each entry, in %.

Working through the 2 molecules below one at a time, give inhibition for each.
1. N#Cc1c(NC(=O)c2cccc3ccccc23)sc2c1CCCC2
2. COC(=O)Nc1nc2cc(Oc3cccc(NC(=O)Nc4cc(C(F)(F)F)ccc4F)c3)ccc2[nH]1

Output:
1: 11.9; 2: 0.37
